Listing: IC50 of selected compounds
# Tested on: A549
# method-notes: MTT colorimetric assay, A549
# Assay type: cell-based
# measurement-context: Homo sapiens, 72 h treatment, mean ± SEM of six replicates of one experiment (1: 7, 13: 6 independent experiments), resistant to apoptosis, read-out: IC50 determined by MTT assays, A549
measurement-type: IC50 (nM)

compound: CC1(C=CCCCc2ccc3ccc4cccc5ccc2c3c45)C=C2C(O)C3(O)OC(=O)C4(CCCC(C)(C)C34)C2(O)CC1 (stereo not shown)
censoring-operator: =
recorded-result: 6610

compound: CC1(C=CCCc2ccc3ccc4cccc5ccc2c3c45)C=C2C(=O)C3(O)OC(=O)C4(CCCC(C)(C)C34)C2(O)CC1 (stereo not shown)
censoring-operator: =
recorded-result: 1200

compound: C=CC1(C)C=C2C(=O)C3(OC(=O)CCCCC(=O)O)OC(=O)C4(CCCC(C)(C)C34)C2(O)CC1 (stereo not shown)
censoring-operator: =
recorded-result: 1920

compound: C=C[C@]1(C)C=C2[C@@H](O)[C@@]3(O)OC(=O)[C@@]4(CCCC(C)(C)[C@H]34)[C@@]2(O)CC1 [Compound 15, sphaeropsidin B, reference compound]
censoring-operator: =
recorded-result: 44800

compound: C=C[C@]1(C)C=C2C(=O)[C@@]3(O)OC(=O)[C@@]4(CCCC(C)(C)[C@H]34)[C@@]2(O)CC1 [Compound 1, sphaeropsidin A, reference compound]
censoring-operator: =
recorded-result: 1710

compound: CC1(C=Cc2ccccc2)C=C2C(=O)C3(O)OC(=O)C4(CCCC(C)(C)C34)C2(O)CC1 (stereo not shown)
censoring-operator: =
recorded-result: 1610

compound: CC1(C=CCCCC(=O)O)C=C2C(=O)C3(O)OC(=O)C4(CCCC(C)(C)C34)C2(O)CC1 (stereo not shown)
censoring-operator: >
recorded-result: 100000

###

# Tested on: SKMEL-28
# method-notes: MTT colorimetric assay, SKMEL-28
# Type: cell-based
# measurement-context: Homo sapiens, SK-MEL-28; 72 h treatment; mean ± SEM; resistant to apoptosis; read-out: IC50 determined by MTT assays, SKMEL-28
Decision: IC50 beneath 2 µM gives 1; IC50 meeting or exceeding 2 µM gives 0.

molecule: C=CCCCc1ccc2ccc3cccc4ccc1c2c34 [Compound 14, reference compound]
assigned-category: 0

molecule: CCCCC=CC1(C)C=C2C(=O)C3(O)OC(=O)C4(CCCC(C)(C)C34)C2(O)CC1 (stereo not shown)
assigned-category: 1

molecule: COC(=O)CCC=CC1(C)C=C2C(=O)C3(O)OC(=O)C4(CCCC(C)(C)C34)C2(O)CC1 (stereo not shown)
assigned-category: 0

molecule: CC1(C=CCCc2ccc3ccc4cccc5ccc2c3c45)C=C2C(=O)C3(O)OC(=O)C4(CCCC(C)(C)C34)C2(O)CC1 (stereo not shown)
assigned-category: 1

molecule: CC1(C=Cc2ccccc2)C=C2C(=O)C3(O)OC(=O)C4(CCCC(C)(C)C34)C2(O)CC1 (stereo not shown)
assigned-category: 0

molecule: CC1(C=CCCCCBr)C=C2C(=O)C3(O)OC(=O)C4(CCCC(C)(C)C34)C2(O)CC1 (stereo not shown)
assigned-category: 0

molecule: CC1(C=CCCBr)C=C2C(=O)C3(O)OC(=O)C4(CCCC(C)(C)C34)C2(O)CC1 (stereo not shown)
assigned-category: 0
